composite z-score values for the molecules below.
system: Lefty1; assay: Lefty1 binders on small-molecule microarrays, primary screen, biochemical, small-molecule microarray, 635/667 nm fluorescence (AID 1139); conditions: small-molecule microarray binding, fluorescence 635/667; higher = more signal
Form rule: numeric answer, no unit written next to it.

Query block: Name the recorded composite z-score of the molecule listed here: COc1ccc([Si](C)(C)[C@@H]2[C@@H](CC(=O)N(CCO)Cc3ccccc3)O[C@]3(C(=O)N(Cc4cccc(I)c4)c4ccccc43)[C@H]2C)cc1
Result block: 1.51

Query block: Name the recorded composite z-score of the molecule listed here: [N-]=[N+]=NCc1ccccc1C[C@@]1(C(=O)NCCN2CCOCC2)N=C(c2ccc(OCCCO)cc2)O[C@@H]1c1ccccc1
Result block: 0.573

Query block: Name the recorded composite z-score of the molecule listed here: O=C(CS)NCCCCCCNC(=O)[C@H]1C[C@H]2C(=O)NCC(=O)N2[C@H]1c1cccc(OCCO)c1
Result block: 0.47

Query block: Name the recorded composite z-score of the molecule listed here: COC(=O)C1=CC(c2ccc(CO)cc2)=CC(C2CC2)N(Cc2cc3c(cc2Br)OCO3)C=C1C(=O)OC (centres undefined)
Result block: 0.413

====

assay: basal HepG2 mitochondrial membrane potential changes, profiling panel, cell-based, JC-1 fluorescence, 24 h, 100 nL compound (AID 1167); conditions: higher = more signal; note: test concentration not given here
MEASURED ATTRIBUTE: z-score
Form rule: numeric answer, no unit written next to it.

Some compounds with known z-score results, for comparison:
compound="C[C@]12C(=O)N(CCO)[C@@H]3C(=O)N(c4ccc(Cl)cc4)CC=CC31O[C@@H]1/C=C\\CCCOC(=O)C12 (stereo partly drawn)" observed=-0.646
compound=CC(C)(C)OC(=O)N1[C@@H](C=C(Br)Br)COC1(C)C observed=0.175

Consider now this further compound.
Query block: Name the recorded z-score of the compound listed here: [N-]=[N+]=NCc1ccccc1[C@H]1OC(c2ccc(OCCCO)cc2)=N[C@@]1(CCS(=O)(=O)c1ccccc1)C(=O)NCCN1CCOCC1
Result block: 0.418

====

experiment: basal 3T3-L1 adipocyte mitochondrial potential changes, profiling panel, cell-based, JC-1 fluorescence, 3T3-L1 adipocytes, 24 h, 100 nL compound (AID 1168); conditions: JC-1 mitochondrial fluorescence, higher = more signal, called active from +8 up or from −8 down; note: test concentration not given here
MEASURED ATTRIBUTE: z-score
Form rule: numeric answer, no unit written next to it.

molecule=CN(C)CCCCCCNC(=O)[C@@H]1C[C@@H]2C(=O)N[C@@H](CCCC[N+](C)(C)C)C(=O)N2[C@@H]1c1cccc(OCCO)c1 observed=-0.225
molecule=COC(=O)[C@@]1(Cc2ccc(F)cc2)[C@@H]2C(=CC(=O)[C@H]2CC(=O)C(=O)N2CCCC2)CN1C(=O)c1ccccc1 observed=-0.568
molecule=CCOC(=O)C1=C[C@@H](C(C)(C)C)N(S(=O)(=O)c2ccc(C)cc2)[C@H]1c1ccc(OC)cc1 observed=-0.305

Query block: Name the recorded z-score of the molecule listed here: CC(=O)NCCCC[C@@H]1NC(=O)[C@H]2C[C@@H](C(=O)NCCCCCN)[C@@H](c3ccc(O)cc3)N2C1=O
Result block: -0.34

Query block: Name the recorded z-score of the molecule listed here: COC(=O)C1=CC(c2ccc(CO)cc2)=CC(C2CC2)N(Cc2cc3c(cc2Br)OCO3)C=C1C(=O)OC (stereo not drawn)
Result block: 0.278

Query block: Name the recorded z-score of the molecule listed here: CCOC(=O)C[C@H]1[C@H](OC(=O)c2ccccc2-c2ccccc2)[C@@H](NC(=O)CC(C)C)c2cc(OCCCO)ccc2N1C(=O)c1ccccc1
Result block: 0.197

Query block: Name the recorded z-score of the molecule listed here: CCCN1C(=O)[C@@]2(c3ccc([N+](=O)[O-])cc3)CC(=O)N(C3CCCCC3)[C@@H]2c2ccc(CO)cc21
Result block: -0.626

Query block: Name the recorded z-score of the molecule listed here: Cc1ccc(S[C@]2(C(=O)NCC(C)C)CC(=O)N(C(C)C)[C@@H]2c2ccc(CO)cc2I)cc1
Result block: 0.953
